- assay target: Human immunodeficiency virus type 1 protease (Human immunodeficiency virus 1, UniProt Q72874)
- test protocol: Inhibitory concentration required to inhibit hydrolytic activity of recombinant HIV-1 PR (human immunodeficiency virus protease)
Listing: IC50 of selected molecules

# molecule, readout qualifier, IC50 / µM
records = [
    ("[N-]=[N+]=NC1C(N)C(OCc2ccccc2)OC(CO)C1OCc1ccccc1 (stereo not drawn)", ">", 1),
    ("NC1C(OCc2ccccc2)OC(COC(=O)Nc2ccccc2)C(OCc2ccccc2)C1N (stereo not drawn)", "=", 28),
    ("NC1C(OCc2ccccc2)OC(CO)C(OCc2ccccc2)C1N (stereo not drawn)", "=", 205),
]

Each recorded value in this set is attributed to ChEMBL document CHEMBL1131680.
